Test system: MOLT-4 leukemia
Experiment Summary: NCI tumour cell line growth inhibition, 48 h; in the data active = GI50 below about 0.43 µM; inactive = the rest
# output must be one of active, inactive

# Molecule, Assay System, Class Assignment
data = [
    ("Clc1ccc(-c2csc(Nc3cccc(-c4csc(-c5ccccc5)n4)c3)n2)cc1", "MOLT-4 leukemia", "inactive"),
    ("COc1ccccc1C1=C(Nc2ccccc2)C(=O)NC1=O", "MOLT-4 leukemia", "inactive"),
    ("CCN(Cc1ccc(F)cc1)c1ccc(CO)c(C)c1", "MOLT-4 leukemia", "inactive"),
]

**Query** Recorded test call requested for `N[C@@H]1C(=O)N2C(C(=O)OC(c3ccccc3)c3ccccc3)=C(CCl)CS[C@H]12`
**Result** inactive

**Query** Recorded test call requested for CCOc1cc(Br)c(C(C)NC(=O)c2cccc(OC)c2)cc1OCC (configuration not stated)
**Result** inactive

**Query** Recorded test call requested for `COc1cccc2c1-c1c(c3ccc([N+](=O)[O-])cc3c(=O)n1CCCN)C2=O`
**Result** active

**Query** Recorded test call requested for `Nc1cc(O)ccc1N=Nc1ccc(-c2nc3ccccc3[nH]2)cc1`
**Result** inactive

**Query** Recorded test call requested for `COc1cccc(-c2nn(-c3ccccc3)cc2-c2ccnc(NCCNC(=O)Nc3cccc(C(F)(F)F)c3)c2)c1`
**Result** inactive

**Query** Recorded test call requested for `CCCCCCNC(=O)Oc1ccc(/C(=C(/C)Cc2ccc(OC)cc2)c2ccc(OCCCN(C)C)cc2)cc1`
**Result** inactive

**Query** Recorded test call requested for `Cc1cc(S(=O)(=O)/N=C/N(C)C)c(SC(=O)c2ccc(Cl)cc2)cc1Cl`
**Result** inactive

**Query** Recorded test call requested for `Cc1cc(Nc2nc(-c3cccnc3)nc3ccccc23)n[nH]1`
**Result** inactive

**Query** Recorded test call requested for `Cc1ccc(-c2c3c(nn2-c2ccc(S(N)(=O)=O)cc2)-c2ccccc2C3)cc1`
**Result** inactive
